Assay: Stability in mouse liver microsomes assessed as parent compound remaining at 1 uM incubated for 0 mins in presence of NADPH by LC-MS/MS analysis
Type: ADME, Microsome
Details: read-out: Stability
metric-name: remaining at 0 h, 1 µM (%)

- compound-string: "Nc1nonc1-n1nnc(C(=O)N/N=C/c2ccccc2O)c1CN1CCc2ccccc2C1"
  metric-name: "remaining at 0 h, 1 µM"
  data-value: 100

----------
Experiment: Stability in human liver microsomes assessed as parent compound remaining at 1 uM incubated for 0 mins in presence of NADPH by LC-MS/MS analysis
Assay type: ADME, Microsome
Conditions: read-out: Stability
metric-name: remaining at 0 h, 1 µM

- compound-string: "Nc1nonc1-n1nnc(C(=O)N/N=C/c2ccccc2O)c1CN1CCc2ccccc2C1"
  data-value: "100%"

----------
List of intrinsic clearance values.
Assay: Intrinsic clearance in mouse liver microsomes at 1 uM in presence of NADPH by LC-MS/MS analysis
Format: ADME, Microsome
metric-name: intrinsic clearance (µL/min/mg)

- compound-string: "CCN(CC)c1ccc(/C=N\\NC(=O)c2nnn(-c3nonc3N)c2CN2CCCCCC2)c(O)c1"
  scale-unit: "µL/min/mg"
  data-value: 690
- compound-string: "CCN(CC)Cc1c(C(=O)N/N=C/c2ccc(N(CC)CC)cc2O)nnn1-c1nonc1N"
  scale-unit: "µL/min/mg"
  data-value: 300
- compound-string: "CCN(CC)c1ccc(/C=N/NC(=O)Cn2nnc(-c3ccccc3)n2)c(O)c1"
  scale-unit: "µL/min/mg"
  data-value: 270
- compound-string: "CCCN(CCC)Cc1c(C(=O)N/N=C/c2ccc(N(CC)CC)cc2O)nnn1-c1nonc1N"
  scale-unit: "µL/min/mg"
  data-value: 270
- compound-string: "CCN(CC)c1ccc(/C=N/NC(=O)Cn2c3ccccc3c(=O)c3ccccc32)c(O)c1"
  scale-unit: "µL/min/mg"
  data-value: 100
- compound-string: "CCN(CC)c1ccc(/C=N/NC(=O)c2cc(C)n[nH]2)c(O)c1"
  scale-unit: "µL/min/mg"
  data-value: 200

----------
Assay: Intrinsic clearance in human liver microsomes at 1 uM in presence of NADPH by LC-MS/MS analysis
Type: ADME, Microsome
Recorded intrinsic clearance by entry

- compound-string: "CCN(CC)c1ccc(/C=N\\NC(=O)c2nnn(-c3nonc3N)c2CN2CCCCCC2)c(O)c1"
  intrinsic clearance: "87 µL/min/mg"
- compound-string: "CCCN(CCC)Cc1c(C(=O)N/N=C/c2ccc(N(CC)CC)cc2O)nnn1-c1nonc1N"
  intrinsic clearance: "130 µL/min/mg"
- compound-string: "CCN(CC)c1ccc(/C=N/NC(=O)Cn2c3ccccc3c(=O)c3ccccc32)c(O)c1"
  intrinsic clearance: "< 20 µL/min/mg"
- compound-string: "CCN(CC)Cc1c(C(=O)N/N=C/c2ccc(N(CC)CC)cc2O)nnn1-c1nonc1N"
  intrinsic clearance: "120 µL/min/mg"
- compound-string: "CCN(CC)c1ccc(/C=N/NC(=O)Cn2nnc(-c3ccccc3)n2)c(O)c1"
  intrinsic clearance: "110 µL/min/mg"
- compound-string: "CCN(CC)c1ccc(/C=N/NC(=O)c2cc(C)n[nH]2)c(O)c1"
  intrinsic clearance: "47 µL/min/mg"

----------
Biological target: N-myc proto-oncogene protein (Homo sapiens)
Sequence (whole entry): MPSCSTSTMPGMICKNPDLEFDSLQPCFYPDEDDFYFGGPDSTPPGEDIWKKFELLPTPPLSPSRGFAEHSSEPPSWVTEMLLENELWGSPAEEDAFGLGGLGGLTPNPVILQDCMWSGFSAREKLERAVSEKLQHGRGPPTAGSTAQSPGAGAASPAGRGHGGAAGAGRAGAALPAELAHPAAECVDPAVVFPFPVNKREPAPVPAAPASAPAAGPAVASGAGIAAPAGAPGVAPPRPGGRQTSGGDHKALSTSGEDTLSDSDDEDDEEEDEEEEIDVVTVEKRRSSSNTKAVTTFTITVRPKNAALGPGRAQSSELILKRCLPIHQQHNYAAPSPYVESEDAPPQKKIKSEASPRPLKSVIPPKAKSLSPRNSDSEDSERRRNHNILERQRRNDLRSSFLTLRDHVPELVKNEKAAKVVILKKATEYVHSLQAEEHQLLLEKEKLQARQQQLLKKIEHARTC
Test: Inhibition of N-Myc (unknown origin) expressed in rat Rat1A cells assessed as inhibition of cell growth incubated for 72 hrs by methylene blue staining based assay
Active and inactive are the calls of the source. The calls are words filed in the database; no cut-off is given here.
metric-name: inhibition

- compound-string: "CCCN(CCC)Cc1c(C(=O)N/N=C/c2ccc(N(CC)CC)cc2O)nnn1-c1nonc1N"
  data-value: "Active"
- compound-string: "CCN(CC)c1ccc(/C=N/NC(=O)c2cc(C)n[nH]2)c(O)c1"
  data-value: "Active"
- compound-string: "CCN(CC)Cc1c(C(=O)N/N=C/c2ccc(N(CC)CC)cc2O)nnn1-c1nonc1N"
  data-value: "Active"
- compound-string: "CCN(CC)c1ccc(/C=N/NC(=O)Cn2c3ccccc3c(=O)c3ccccc32)c(O)c1"
  data-value: "Active"
- compound-string: "CCN(CC)c1ccc(/C=N\\NC(=O)c2nnn(-c3nonc3N)c2CN2CCCCCC2)c(O)c1"
  data-value: "Active"
- compound-string: "Cc1ccc(/C=N/NC(=O)c2cc(-c3ccccc3)n[nH]2)c(O)c1"
  data-value: "Active"
- compound-string: "Nc1nonc1-n1nnc(C(=O)N/N=C/c2ccccc2O)c1CN1CCc2ccccc2C1"
  data-value: "Active"

----------
Molecular target: Myc proto-oncogene protein (Homo sapiens)
Assay: Inhibition of Myc in human melanoma cells assessed as reduction in Myc-transactivated thymidylate synthase gene expression
Assay type: cell-based
The source made the active and inactive calls. The rule behind the calls is not given here.
metric-name: inhibition

- compound-string: "C=CCc1cccc(/C=N/NC(=O)c2cc(C(C)(C)C)n[nH]2)c1O"
  metric-name: "inhibition"
  data-value: "Active"
- compound-string: "COc1ccc(OCC(=O)N/N=C\\c2cc(O)c(O)c(Br)c2)c(Br)c1"
  metric-name: "inhibition"
  data-value: "Active"
- compound-string: "CCN(CC)c1ccc(/C=N/NC(=O)Cn2nnc(-c3ccccc3)n2)c(O)c1"
  metric-name: "inhibition"
  data-value: "Active"
